Just for reference, ChEMBL document CHEMBL1201862 is where these values come from.

# Tested on: UO-31
# ASSAY_TEXT: NCI tumour cell line growth inhibition, 48 h
Activity calls are given as the source filed them. Cut-off read from the data, not from the text of the source: active = GI50 up to about 1.1 µM and inactive = higher.
Give GI50 for every item shown.

IN: What value of GI50 on UO-31 does `Nc1ccc(-c2nc3ccc(F)cc3s2)cc1Cl` have?
OUT: > 100 µM (inactive)

IN: Please tell me: GI50 of CC1=NN(C(=O)CC(=O)Nc2ccccc2C)C(=O)C1/N=N\c1ccc(S(=O)(=O)c2ccc(/N=N/C3C(=O)N(C(=O)CC(=O)Nc4ccccc4C)N=C3C)cc2)cc1 (centres undefined) , system UO-31?
OUT: > 100 µM (inactive)

IN: What GI50 appears in the records for this molecule with UO-31? `CO[C@H]1C=C[C@@]23c4cc5c(cc4CO[C@]2(O)CN(C)[C@H]3C1)OCO5`
OUT: > 100 µM (inactive)

IN: Please tell me: GI50 of `COC(=O)CSc1cc(Cl)c(C)cc1S(=O)(=O)Nc1n[nH]c(N)n1` , system UO-31?
OUT: > 10 µM (inactive)

IN: Fill in the recorded GI50 for this molecule, with UO-31 as test system: `CS(=O)(=O)OCCN1CCN(C(=O)c2cccc3c(Nc4ccc(S(=O)(=O)N=C(N)N)cc4)c4ccccc4nc23)CC1`
OUT: > 100 µM (inactive)

IN: Report GI50 for `CCOC(=O)c1nc2ccccc2nc1Nc1ccc(OC)cc1` tested on UO-31.
OUT: 88.7 µM (inactive)

IN: Identify the measured GI50 of `[O-][Cl+3]([O-])([O-])[O-].c1ccc(-c2csc3c4ccccc4c4ccccc4[n+]23)cc1` for UO-31.
OUT: 10.7 µM (inactive)

IN: State its GI50 on UO-31: `O=C1C=C(c2c(O)ccc3ccccc23)c2cc(O)ccc2C1=O`
OUT: 19.6 µM (inactive)

IN: Recall the recorded GI50 for `O=C1/C(=C/c2ccc(Br)s2)NC(=S)N1c1ccccc1` with UO-31 and state it.
OUT: > 100 µM (inactive)

----------
# System: TK-10
# ASSAY_TEXT: NCI tumour cell line growth inhibition, 48 h
Activity calls are given as the source filed them. Cut-off read from the data, not from the text of the source: active = GI50 up to about 1.1 µM and inactive = higher.
VALUE_TYPE: GI50

IN: Entry under review: O=C1CC(=O)NC(NN2C(=O)CSC2C(=O)c2ccco2)=N1 (stereo not given) . Reported GI50?
OUT: > 100 µM (inactive)

IN: Form field: reported GI50 of `Nc1c(-c2ccc(-c3c(N)[n+]([O-])c4ccccc4[n+]3[O-])cc2)[n+]([O-])c2ccccc2[n+]1[O-]`
OUT: 17.6 µM (inactive)

IN: Suppose we examine the molecule `N=c1c2c(=S)n(-c3ccccc3)c(=S)n(-c3ccccc3)c2nc(SCCCN2CCCCC2)n1-c1ccccc1` ; what GI50 value has been reported?
OUT: 1.71 µM (inactive)

IN: // GI50 lookup, key: `O=C(c1ccc(Cl)cc1)c1ccc(OCC(=O)N2CCN(c3ccccc3)CC2)cc1`
OUT: > 100 µM (inactive)

IN: Form field: reported GI50 of `Oc1c(Br)cc(/C=C/c2ccnc(/C=C/c3cc(Br)c(O)c(Br)c3)c2)cc1Br`
OUT: 27.2 µM (inactive)

----------
# Test system: A498
# ASSAY_TEXT: NCI tumour cell line growth inhibition, 48 h
Active and inactive are the calls of the source. Rule as the data show it: active = GI50 up to about 1.1 µM and inactive = higher.
For each of the compounds below, state its GI50.

IN: What value of measured GI50 is listed for `CC(CCC(=O)O)(c1ccc(O)cc1)c1ccc(O)cc1` ?
OUT: > 100 µM (inactive)

IN: Can you look up the measured GI50 of Nc1ccn(CCOC(c2ccccc2)P(=O)(O)O)c(=O)n1 (stereo not given) for me?
OUT: > 100 µM (inactive)

IN: // lookup GI50 for `CCOC(=O)c1cc2cc(Cc3ccc4[nH]c(C(=O)OCC)cc4c3)ccc2[nH]1`
OUT: 17.3 µM (inactive)

IN: So what does the record say about GI50 for `COc1ccc(/C=C2\N=C3NC(=O)C(N4CCCCC4)=C(N)N3C2=O)cc1` ?
OUT: > 100 µM (inactive)

IN: For the compound `Cc1nc(O)nc2nc3cc(Cl)cc(Cl)c3c(NC(C)(CO)CO)c12` , what GI50 is on record?
OUT: 13.6 µM (inactive)

IN: Reported GI50, compound `CS(=O)(=O)OCCN1CCN(C(=O)c2cccc3c(Nc4ccc(S(=O)(=O)N=C(N)N)cc4)c4ccccc4nc23)CC1` : ____
OUT: > 100 µM (inactive)

IN: Can you share its GI50? I mean this compound: COc1ccc(N2C(=O)C3c4[nH]c5ccc(OCc6ccccc6)cc5c4C4CCC(C(C)C)CC4C3C2=O)cc1 (stereo not given)
OUT: 5.71 µM (inactive)

IN: Quick one: GI50 for CC(C)(C)NCC(O)c1ccc(O)c(CO)n1 (stereo not given) ?
OUT: > 100 µM (inactive)

IN: I have this compound here, COC(=O)C(Cc1ccccc1)NP(=O)(O)OCC1OC(n2ccc(N)nc2=O)C(O)C1O (stereo not given) , and I need its recorded GI50.
OUT: > 100 µM (inactive)

IN: Look at this compound and give its reported GI50. CN1C(=O)CC(c2cccc(C3CC(=O)N(C)C3=O)n2)C1=O (stereo not given)
OUT: > 100 µM (inactive)
